- Test system: E. coli TESEC Mtb Alr
- protocol notes: growth (OD600 after 10 h); higher = more growth (less inhibition)
- test context: arabinose 1000000 nM; compound 0.1 mM; raw OD600 reference: median of DMSO wells 0.193, cell-free background 0.041
Where a name gives a salt, the structure may show the parent alone.
measured attribute: growth

{"compound": "CCN(CC)Cc1cc(Nc2ccnc3cc(Cl)ccc23)ccc1O [Amodiaquin dihydrochloride dihydrate]", "assayed system": "E. coli TESEC Mtb Alr", "assay result": 0.102}
{"compound": "Cc1cccc(Nc2ccccc2C(=O)O)c1C", "assayed system": "E. coli TESEC Mtb Alr", "assay result": 0.103}
{"compound": "NNCCc1ccccc1 [Phenelzine sulfate]", "assayed system": "E. coli TESEC Mtb Alr", "assay result": 0.0977}
{"compound": "NC[C@@H]1O[C@H](O[C@H]2[C@@H](O)[C@H](O[C@@H]3[C@@H](O)[C@H](N)C[C@H](N)[C@H]3O[C@H]3O[C@H](CO)[C@@H](O)[C@H](O)[C@H]3N)O[C@@H]2CO)[C@H](N)[C@@H](O)[C@@H]1O [Paromomycin sulfate]", "assayed system": "E. coli TESEC Mtb Alr", "assay result": 0.19}
{"compound": "Brc1c(NC2=NCCN2)ccc2nccnc12 [Brimondine L-Tartrate]", "assayed system": "E. coli TESEC Mtb Alr", "assay result": 0.172}
{"compound": "CCCCNc1ccc(C(=O)OCCN(C)C)cc1", "assayed system": "E. coli TESEC Mtb Alr", "assay result": 0.166}
{"compound": "CC[C@H]1OC(=O)[C@H](C)[C@@H](O[C@H]2C[C@@](C)(OC)[C@@H](O)[C@H](C)O2)[C@H](C)[C@@H](O[C@@H]2O[C@H](C)C[C@H](N(C)C)[C@H]2O)[C@](C)(O)C[C@@H](C)/C(=N\\OCOCCOC)[C@H](C)[C@@H](O)[C@]1(C)O", "assayed system": "E. coli TESEC Mtb Alr", "assay result": 0.0402}
{"compound": "CCCc1nn(C)c2c(=O)[nH]c(-c3cc(S(=O)(=O)N4CCN(C)CC4)ccc3OCC)nc12", "assayed system": "E. coli TESEC Mtb Alr", "assay result": 0.161}
{"compound": "Cc1c(O)cccc1C(=O)N[C@@H](CSc1ccccc1)[C@H](O)CN1C[C@H]2CCCC[C@H]2C[C@H]1C(=O)NC(C)(C)C [Nelfinavir mesylate]", "assayed system": "E. coli TESEC Mtb Alr", "assay result": 0.148}
{"compound": "Clc1ccc(COC(Cn2ccnc2)c2ccc(Cl)cc2Cl)cc1 (stereo not given) [Econazole nitrate]", "assayed system": "E. coli TESEC Mtb Alr", "assay result": 0.0574}

====

- System: E. coli TESEC Mtb Alr
- protocol notes: growth (OD600 after 10 h); higher = more growth (less inhibition)
- test context: arabinose 1000 nM; compound 0.1 mM; raw OD600 reference: median of DMSO wells 0.294, cell-free background 0.041
Structures can show the parent of a compound that is named as a salt.

{"compound": "CC(=O)/N=c1/sc(S(N)(=O)=O)nn1C [Methazolamide]", "growth": 0.301}
{"compound": "CNc1ncnc2c1ncn2[C@@H]1O[C@H](CO)[C@@H](O)[C@H]1O", "growth": 0.334}
{"compound": "N=C(N)NCc1cccc(I)c1 [Iobenguane sulfate]", "growth": 0.289}
{"compound": "C#C[C@]1(O)CC[C@H]2[C@@H]3CCc4cc(O)ccc4[C@H]3CC[C@@]21C", "growth": 0.0489}
{"compound": "c1cnc(N2CCN(Cc3ccc4c(c3)OCO4)CC2)nc1 [Piribedil hydrochloride]", "growth": 0.273}
{"compound": "c1ccc(CNc2ncnc3nc[nH]c23)cc1", "growth": 0.243}
{"compound": "CCN(CC)C(=O)Nc1ccc(OCC(O)CNC(C)(C)C)c(C(C)=O)c1 (stereo not given) [Celiprolol HCl]", "growth": 0.292}
{"compound": "O=C(OCCOCCO)c1ccccc1Nc1cccc(C(F)(F)F)c1 [Etofenamate]", "growth": 0.0491}
{"compound": "Cc1ccc(-c2cc(C(F)(F)F)nn2-c2ccc(S(N)(=O)=O)cc2)cc1", "growth": 0.041}
{"compound": "CO[C@@H]1[C@@H](OC(N)=O)[C@@H](O)[C@H](Oc2ccc3c(O)c(NC(=O)c4ccc(O)c(CC=C(C)C)c4)c(=O)oc3c2C)OC1(C)C [Novobiocin sodium salt]", "growth": 0.0437}
{"compound": "CC(Oc1c(Cl)cccc1Cl)C1=NCCN1 (stereo not given)", "growth": 0.27}
{"compound": "COCCCOc1ccnc(C[S+]([O-])c2nc3ccccc3[nH]2)c1C (stereo not given) [Rabeprazole Sodium salt]", "growth": 0.213}
{"compound": "N=C(N)NCCN1CCCCCCC1 [Guanethidine sulfate]", "growth": 0.298}
{"compound": "C[C@]12CC[C@@H]3c4ccc(O)cc4CC[C@H]3[C@@H]1C[C@@H](O)[C@@H]2O", "growth": 0.218}
{"compound": "CC[C@H]1OC(=O)[C@H](C)[C@@H](O[C@H]2C[C@@](C)(OC)[C@@H](O)[C@H](C)O2)[C@H](C)[C@@H](O[C@@H]2O[C@H](C)C[C@H](N(C)C)[C@H]2O)[C@](C)(OC)C[C@@H](C)C(=O)[C@H](C)[C@@H](O)[C@]1(C)O", "growth": 0.0421}
{"compound": "COc1cc(NS(=O)(=O)c2ccc(N)cc2)nc(OC)n1", "growth": 0.264}
{"compound": "NC(=O)N1c2ccccc2C=Cc2ccccc21 [Carbamazepine]", "growth": 0.281}
{"compound": "CCN(CC)C(C)CN1c2ccccc2Sc2ccccc21 (stereo not given) [Ethopropazine hydrochloride]", "growth": 0.214}
{"compound": "CC(C)(CO)C(O)C(=O)NCCCO (stereo not given)", "growth": 0.296}
{"compound": "COc1cc(Cc2cnc(N)nc2N)cc(OC)c1OC", "growth": 0.0486}
{"compound": "Brc1c(NC2=NCCN2)ccc2nccnc12 [Brimondine L-Tartrate]", "growth": 0.288}
{"compound": "NS(=O)(=O)c1cc2c(cc1Cl)NC(C(Cl)Cl)NS2(=O)=O (stereo not given) [Trichlormethiazide]", "growth": 0.296}
{"compound": "Clc1ccc(CSC(Cn2ccnc2)c2ccc(Cl)cc2Cl)cc1 (stereo not given) [Sulconazole nitrate]", "growth": 0.0534}
{"compound": "Cc1cccc(C)c1NC(=O)CN1CCN(CCCC(c2ccc(F)cc2)c2ccc(F)cc2)CC1", "growth": 0.311}
{"compound": "O=C(O)CN(CCN(CC(=O)O)CC(=O)O)CCN(CC(=O)O)CC(=O)O", "growth": 0.0429}
